test.protocol: growth effects on S. cerevisiae YJM789 – YJM789 clinical isolate, OD600, 24 h, basal, primary screen (AID 1089);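 also: growth of clinical yeast isolate S. cerevisiae YJM 789 seeded 1000 cells per well; test concentration not given here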
conditions: higher = more signal, called active from +8 up or from −8 down
value.type: z-score
Lab note: record the figure alone, no unit after it.

As a guide, the following entries are already answered.
| chemical.structure | experimental.value |
| --- | --- |
| COC(=O)C(CC#Cc1ccc2c(c1)[C@]1(C(=O)N2)[C@H](c2ccccc2OCCO)N2[C@H](c3ccccc3)[C@H](c3ccccc3)OC(=O)[C@H]2[C@@H]1C(N)=O)C(=O)OC | 1.31 |
| COc1ccc([C@H]2C[C@H]3C(I)=C[C@@H]2C(=O)[C@]32CO2)cc1 | -1.61 |
| O=c1cccc(-c2ccccc2Cl)o1 | -0.871 |
| CCCCCCc1nc(-c2ccc(-c3ccc(Cl)c(Cl)c3)o2)cc2c1[Si](C(C)C)(C(C)C)O[C@H]2c1ccccc1 | -0.124 |
| Cc1ccc(/C=C/C=O)cc1 | 0.427 |
| C#CCOc1ccc(C[C@@H](C(=O)OC)N(CC#C)[C@@H](/C=C/C2CC2)[C@H](O)Cc2ccccc2)cc1 | 0.591 |
| COC(=O)c1c2oc(c1C(=O)OC)C(=O)N[C@@H](C(C)C)Cn1cc(nn1)C1(CCCCC1)NC(=O)N[C@H](CO)CC2 | -0.301 |

Problem: Please look up its z-score: [N-]=[N+]=Nc1ccccc1C[C@]1(C(=O)NCc2ccccc2)N=C(c2ccc(OCCCO)cc2)O[C@H]1c1ccccc1N=[N+]=[N-]
Solution: 0.422

----------
test.protocol: growth of efflux-deficient E. coli DRC39 – strain DRC39, OD650, 48 h, E. coli filamentation inducers, primary screen (AID 1179);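 also: screen aims at cell division blockers that make cells filament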
conditions: E. coli DRC39 delta-acrAB growth, higher = more signal, called active from +8 up or from −8 down
Label scheme for z-score: lower than -0.3 is not satisfied, -0.3 and above is satisfied.

Recorded results for 10 compounds are shown here.
| compound | class |
| --- | --- |
| COC(=O)[C@@]1(Cc2ccc(F)cc2)[C@H]2c3cc(C(=O)N(C)C)n(Cc4ccc(C)o4)c3C[C@H]2CN1C(=O)c1ccccc1 | satisfied |
| COCCCNC(=O)[C@@H]1c2ccccc2C(=O)N(Cc2ccccc2OC)[C@H]1c1ccc(CO)cc1 | satisfied |
| COC(=O)C(CC#Cc1ccc2c(c1)[C@]1(C(=O)N2)[C@H](c2ccc(O)cc2)N2[C@H](c3ccccc3)[C@H](c3ccccc3)OC(=O)[C@H]2[C@@H]1C(=O)N1CCN(c2ncccn2)CC1)C(=O)OC | satisfied |
| C=CCNC(=O)[C@H]1[C@@H]2C(=O)O[C@@H](c3ccccc3)[C@@H](c3ccccc3)N2[C@@H](c2ccc(OCCO)cc2)[C@]12C(=O)Nc1ccc(C#CCC(C(=O)OC)C(=O)OC)cc12 | satisfied |
| O=C1O[C@@H](c2ccccc2)[C@@H](c2ccccc2)N2[C@@H](c3ccc(OCCO)cc3)[C@]3(C(=O)Nc4ccc(C#CC5=CCCCC5)cc43)[C@@H](C(=O)N3CCCCCCC3)[C@H]12 | satisfied |
| CCCC=C(CCC)[C@@H](NC(=O)OCC(C)C)c1ccccc1 | not satisfied |
| CC(C)[Si](C#CCCCC#N)(O[C@H](c1ccccc1)c1cn(Cc2cccc(Cl)c2)nn1)C(C)C | satisfied |
| COCC(=C=CC[C@H](O)c1ccccc1OCCO)CCO | satisfied |
| CCCCN1CC=CC23O[C@@H]4C=CCOC(=O)[C@@H]4[C@H]2C(=O)N(CCCCCCO)[C@@H]3C1=O (some centres undefined) | satisfied |
| CCOC(=O)C[C@H]1[C@H](OC(=O)c2ccc(-c3ccccc3)cc2)[C@@H](NC(=O)c2ccccc2)c2cc(OCCCO)ccc2N1C(=O)Cc1ccc(OC)cc1 | satisfied |

Problem: Decide: z-score of COc1cc(CO)cc(I)c1O[C@H]1C=C(C(=O)NCCO)C[C@@H](NC[C@@H]2CCCO2)[C@@H]1O >= -0.3?
Solution: satisfied

Problem: Decide: z-score of CCOC(=O)C[C@H]1[C@H](OC(=O)c2ccc(C(=O)c3ccccc3)cc2)[C@@H](NC(=O)Cc2ccc(OC)cc2)c2cc(OCCCO)ccc2N1C(=O)c1ccc2ccccc2n1 >= -0.3?
Solution: not satisfied

Problem: Decide: z-score of [N-]=[N+]=Nc1ccccc1[C@H]1OC(c2ccc(OCCCO)cc2)=N[C@@]1(Cc1ccccc1)C(=O)N1CCOCC1 >= -0.3?
Solution: not satisfied

Problem: Decide: z-score of CC(C)CCC[C@@H](C)[C@H]1CC[C@@]2(C)C3=C(CC[C@]12C)[C@@]1(C)CC[C@H](OC(=O)c2ccc(C(F)(F)F)nc2)C(C)(C)C1CC3 (some centres undefined) >= -0.3?
Solution: satisfied

Problem: Decide: z-score of CCOc1ccc(N2C(=O)CSC2c2cccc([N+](=O)[O-])c2)cc1 (centres undefined) >= -0.3?
Solution: satisfied

Problem: Decide: z-score of O=C1C2C=CC(C(O)c3ccc4c(c3)OCO4)N(Nc3ccc([N+](=O)[O-])cc3)C2C(=O)N1c1ccccc1 (centres undefined) >= -0.3?
Solution: not satisfied

Problem: Decide: z-score of C#CCOc1ccc(C[C@@H](C(=O)OC)N(CC#C)[C@@H](/C=C/C2CC2)[C@H](O)Cc2ccccc2)cc1 >= -0.3?
Solution: not satisfied

Problem: Decide: z-score of CCCCN1CC=CC23O[C@@H]4/C=C\CCCOC(=O)C4[C@H]2C(=O)N(CCCCCO)[C@@H]3C1=O (some centres undefined) >= -0.3?
Solution: satisfied

Problem: Decide: z-score of O=C1C2C=CC(C(O)c3ccc(F)cc3)N(Nc3ccc([N+](=O)[O-])cc3)C2C(=O)N1c1ccccc1 (centres undefined) >= -0.3?
Solution: not satisfied

Problem: Decide: z-score of O=C1C2C=CC(C(O)c3cc(C(F)(F)F)cc(C(F)(F)F)c3)N(Nc3ccccc3)C2C(=O)N1c1ccccc1 (centres undefined) >= -0.3?
Solution: satisfied

Problem: Decide: z-score of COC(=O)[C@@]1(Cc2ccc(F)cc2)[C@H]2c3cc(C(=O)N(C)C)n(Cc4cc(C)n(C)n4)c3C[C@H]2CN1C(=O)c1ccccc1 >= -0.3?
Solution: not satisfied

Problem: Decide: z-score of NC(=O)NCC#Cc1ccc2c(c1)[C@]1(C(=O)N2)[C@H](C(=O)O)[C@H]2C(=O)O[C@H](c3ccccc3)[C@H](c3ccccc3)N2[C@@H]1c1ccc(O)cc1 >= -0.3?
Solution: satisfied

Problem: Decide: z-score of Cc1ccc(S(=O)(=O)N2C[C@@H](C(=O)O)[C@H](Sc3ccccc3)C[C@H]2c2ccccc2)cc1 >= -0.3?
Solution: not satisfied

Problem: Decide: z-score of O=c1cccc(-c2ccccc2Cl)o1 >= -0.3?
Solution: not satisfied

Problem: Decide: z-score of NC(=O)[C@@H]1[C@H]2C(=O)O[C@H](c3ccccc3)[C@H](c3ccccc3)N2[C@H](c2ccc(O)cc2)[C@@]12C(=O)Nc1ccc(C#CC3=CCCCC3)cc12 >= -0.3?
Solution: not satisfied

Problem: Decide: z-score of COc1ccc(C(=O)Nc2ccc(CN3C(=O)[C@]4(O[C@H](CC(=O)N5CCC[C@H]5CO)[C@@H]([Si](C)(C)c5ccc(OC)cc5)[C@@H]4C)c4ccccc43)cc2)cc1 >= -0.3?
Solution: not satisfied

Problem: Decide: z-score of COC(=O)[C@@]1(Cc2ccc(OC)cc2)[C@H]2c3cc(C(=O)N4CCCC4)n(Cc4nc5ccccc5[nH]4)c3C[C@H]2CN1C(=O)c1ccccc1 >= -0.3?
Solution: satisfied

Problem: Decide: z-score of COc1ccc([C@H]2C[C@H]3C(Br)=C[C@@]2(CO)C(=O)[C@]32CO2)cc1 >= -0.3?
Solution: satisfied

Problem: Decide: z-score of O=C(CS)NCCCCCNC(=O)[C@@H]1C[C@@H]2C(=O)NCC(=O)N2[C@@H]1c1ccc(O)cc1 >= -0.3?
Solution: not satisfied

----------
target.entity: Calmodulin-1 (Homo sapiens) (UniProt P0DP23)
test.protocol: small molecules binding calmodulin-1 with EGTA – biochemical, small-molecule microarray, Cy5-labelled CALM1, profiling panel (AID 1111);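 also: labelled calmodulin applied in Tris saline Tween buffer holding calcium plus EGTA and DTT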
conditions: Cy5-CALM1 binding fluorescence, higher = more signal
Label scheme for composite z-score: lower than -0.4 is F, -0.4 and above is T.

| compound | class |
| --- | --- |
| CCCCN1CC=CC23O[C@@H]4/C=C\CCCOC(=O)C4[C@H]2C(=O)N(CCCCCO)[C@@H]3C1=O (stereo partly drawn) | F |
| CC1CC/C=C\[C@H]2OC34C=CCN(Cn5nnc6ccccc65)C(=O)[C@H]3N(CCCCCO)C(=O)[C@@H]4C2C(=O)O1 (stereo partly drawn) | F |
| CO[C@H]1O[C@H](CO)[C@@H](OC(=O)Nc2ccccc2)[C@@H]2OC(=O)[C@@H](Cc3ccc4ccccc4c3)C/C=C/C[C@H](Cc3ccc4ccccc4c3)C(=O)O[C@@H]12 | T |
| NCCCCCNC(=O)[C@H]1C[C@H]2C(=O)N[C@@H](Cc3ccccc3)C(=O)N2[C@H]1c1cccc(OCCO)c1 | T |
| COCCCNC(=O)[C@@]1(Sc2ccc(C)cc2)CC(=O)N(Cc2ccccc2Cl)[C@@H]1c1ccc(CO)cc1 | T |
| C=C(CCCC)/C(=C/C[C@H](OC(=O)c1ccncc1)c1ccc(OCCO)cc1)c1cc(C(=O)OC)ccc1OC | T |
| CC(C)Cc1ccc(CN2CC[C@@H](N)C2)cc1 | T |

Now consider the entry below.
Problem: Decide: composite z-score of CC(CO)N1C(=O)[C@@H]2C3C(=O)OCCC/C=C\[C@H]3OC23C=CCN(CCN2CCOCC2)C(=O)[C@@H]13 (stereo partly drawn) >= -0.4?
Solution: F
